target: Bromodomain-containing protein 3 (Homo sapiens); assay: Selectivity index, ratio of Ki for human recombinant BRD3 BD1 (24 to 144 residues) to Ki for human recombinant BRD3 BD2 (306 to 417 residues)
Sequence (Q15059 2-726 limits assumed): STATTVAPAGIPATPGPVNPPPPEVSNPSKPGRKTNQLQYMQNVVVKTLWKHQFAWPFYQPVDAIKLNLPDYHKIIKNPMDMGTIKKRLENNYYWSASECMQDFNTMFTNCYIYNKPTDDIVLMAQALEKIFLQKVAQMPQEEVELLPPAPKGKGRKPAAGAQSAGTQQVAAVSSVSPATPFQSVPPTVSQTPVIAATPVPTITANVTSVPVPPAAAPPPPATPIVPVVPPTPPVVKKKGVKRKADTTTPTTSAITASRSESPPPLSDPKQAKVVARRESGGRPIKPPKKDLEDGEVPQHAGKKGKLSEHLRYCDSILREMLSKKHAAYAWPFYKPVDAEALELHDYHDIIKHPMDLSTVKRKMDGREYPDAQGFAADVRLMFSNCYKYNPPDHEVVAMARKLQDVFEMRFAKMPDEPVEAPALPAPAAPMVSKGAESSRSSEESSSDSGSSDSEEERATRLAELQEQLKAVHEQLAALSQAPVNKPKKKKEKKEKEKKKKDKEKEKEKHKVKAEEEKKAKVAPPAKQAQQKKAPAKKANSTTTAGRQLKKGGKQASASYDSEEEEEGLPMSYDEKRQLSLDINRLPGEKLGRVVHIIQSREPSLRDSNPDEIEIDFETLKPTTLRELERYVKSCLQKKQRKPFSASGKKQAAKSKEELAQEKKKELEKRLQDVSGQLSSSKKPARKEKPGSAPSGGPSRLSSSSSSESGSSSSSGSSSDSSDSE
recorded-endpoint: Ratio Ki
Note: the reply should be a number with no unit written.

Look over these answered cases.
## Input What reported Ratio Ki corresponds to CCn1cc(-c2ccc3c(c2)C(Nc2ccc(Cl)cc2)CCc2nnc(C)n2-3)cn1 (centres undefined) on Bromodomain-containing protein 3 (Homo sapiens)?
## Output 12

## Input State its Ratio Ki on Bromodomain-containing protein 3 (Homo sapiens): Cc1nnc2n1-c1ccc(-c3cnn(C)c3)cc1[C@H](Nc1ccc(Cl)cc1)CC2
## Output 15

## Input Please state recorded Ratio Ki (tested on Bromodomain-containing protein 3 (Homo sapiens)) of Cc1nnc2n1-c1ccc(-c3cn[nH]c3)cc1C(Nc1ccc(Cl)cc1)CC2 (centres undefined)
## Output 8

---
## Input Short answer please: Ratio Ki, Bromodomain-containing protein 3 (Homo sapiens), entry Cc1nnc2n1-c1ccc(-c3cnn(C)c3)cc1C(Nc1ccc(Cl)cc1)CC2 (centres undefined)
## Output 17

====

Below, each entry is listed with its recorded pKi.
target: Bromodomain-containing protein 4 (Homo sapiens, UniProt O60885); test: Binding affinity to human recombinant BRD4 BD2 (333 to 460 residues) by fluorescence polarization assay
// pKi is dimensionless: -log10 of concentration (M)

## Input Quick one: pKi for CC(=O)Nc1ccc2c(c1)C(Nc1ccc(Cl)cc1)CCc1nnc(C)n1-2 (stereo not given) ?
## Output 7.30

## Input Suppose we examine the compound Cc1nnc2n1-c1ccc(-c3ccc(N)nc3)cc1C(Nc1nn(C)c3ccccc13)CC2 (stereo not given) ; what pKi value has been reported?
## Output 6.21

## Input Tell me the measured pKi of Cc1nnc2n1-c1ccc(-c3cnc(N)nc3)cc1C(Nc1ccc(Cl)cc1)CC2 (stereo not given) , please.
## Output 7.18

## Input Form field: reported pKi of Cc1nnc2n1-c1ccc(-c3ccc(N)nc3)cc1C(Nc1cccc3ccccc13)CC2 (stereo not given)
## Output 7.38

Note: attention shifts to another entry.
## Input Consider the compound Cc1nnc2n1-c1ccc(-c3ccc(N)nc3)cc1C(Nc1cc(C3CC3)nn1C)CC2 (stereo not given) and give its measured pKi.
## Output 6.42

====

assay: AUC (0 to t) in ICR mouse at 15 mg/kg, po measured upto 24 hrs by LC-MS/MS analysis; format: ADME, organism-based; parameters: time < 24 hr, dose 15 mg/kg, route oral; conditions: in vivo
recorded-endpoint: AUC(0-t) at 24 h
Give your result as the value with the unit written after it.

## Input # input compound: Cc1nnc2n1-c1ccc(-c3cnn(C)c3)cc1[C@H](Nc1ccc(Cl)cc1)CC2 ; wanted: its AUC(0-t) at 24 h
## Output 5890 ng·h/mL

====

Parameter pKi: see the listing below.
target: Bromodomain-containing protein 4 (Homo sapiens); assay: Binding affinity to human recombinant BRD4 BD2 (333 to 460 residues) by fluorescence polarization assay
In plain terms, pKi is the concentration in mol/L turned into minus its base-10 logarithm.

Check out these entries, answers already filled in.
## Input Suppose we examine the compound Cc1nnc2n1-c1ccc(-c3ccc(CCCN4CCN(C)CC4)cc3)cc1C(Nc1ccc(Cl)cc1)CC2 (stereo unspecified) ; what pKi value has been reported?
## Output 7.91

## Input Tell me the measured pKi of Cc1nnc2n1-c1ccc(-c3ccc(N(C)C)cc3)cc1C(Nc1ccc(Cl)cc1)CC2 (stereo unspecified) , please.
## Output 7.18

## Input Report pKi for COc1ccc(NC2CCc3nnc(C)n3-c3ccc(-c4ccc(N)nc4)cc32)cc1 (stereo unspecified) please.
## Output 6.76

## Input Query (compound): Cc1nnc2n1-c1ccc(-c3ccc(C(=O)O)cc3)cc1C(Nc1ccc(Cl)cc1)CC2 (stereo unspecified) ; field requested: pKi
## Output 7.33

## Input May I ask what pKi has been recorded for Cc1nnc2n1-c1ccc(-c3ccc(N4CCN(C)CC4)cc3)cc1C(Nc1ccc(Cl)cc1)CC2 (stereo unspecified) ?
## Output 7.76

## Input Reported pKi for Cc1nnc2n1-c1ccc(-c3ccc(N)nc3)cc1C(Nc1ccc(F)cc1)CC2 (stereo unspecified) : what is it?
## Output 7.03

Continuing:
## Input What does the record list as pKi for COc1ccc2c(c1)C(Nc1ccc(Cl)cc1)CCc1nnc(C)n1-2 (stereo unspecified) ?
## Output 6.60

## Input Endpoint output: pKi of Cc1nnc2n1-c1ccc(-c3ccc4c(c3)CCC(=O)N4)cc1C(Nc1ccc(Cl)cc1)CC2 (stereo unspecified) . Value?
## Output 7.16

## Input Query (compound): Cc1nnc2n1-c1ccc(NC(=O)C3CCN(C)CC3)cc1C(Nc1ccc(Cl)cc1)CC2 (stereo unspecified) ; field requested: pKi
## Output 6.99

## Input Returns the measured pKi for the input compound. Input: Cc1nnc2n1-c1ccc(-c3cnn(C)c3)cc1[C@H](Nc1ccc(Cl)cc1)CC2
## Output 8.14

## Input Which pKi value is on record for Cc1nnc2n1-c1ccc(-c3cn[nH]c3)cc1C(Nc1ccc(Cl)cc1)CC2 (stereo unspecified) ?
## Output 7.80

## Input Request the reported pKi associated with Cc1nnc2n1-c1ccc(-c3ccc(CCN4CCN(C)CC4)cc3)cc1C(Nc1ccc(Cl)cc1)CC2 (stereo unspecified)
## Output 7.26

## Input Quick one: pKi for Cc1nnc2n1-c1ccc(-c3cnn(C)c3)cc1C(Nc1ccc3ccccc3c1)CC2 (stereo unspecified) ?
## Output 7.61

## Input Query: pKi; subject: Cc1nnc2n1-c1ccc(-c3ccc(N)nc3)cc1C(Nc1ccc(C#N)cc1)CC2 (stereo unspecified)
## Output 7.09

## Input Please report the recorded pKi for Cc1nnc2n1-c1ccc(NS(C)(=O)=O)cc1C(Nc1ccc(Cl)cc1)CC2 (stereo unspecified) .
## Output 6.04

====

target: Bromodomain-containing protein 4 (Homo sapiens); test: Binding affinity to human recombinant BRD4 BD2 (333 to 460 residues) by fluorescence polarization assay
recorded-endpoint: Ki (nM)
Your answer is read as nM, so omit the unit and give the number.

Answered cases to consult:
## Input Using the record for Cc1nnc2n1-c1ccc(-c3cnn(C)c3)cc1C(Nc1ccc(Cl)cc1)CC2 (stereo not given) , report its Ki.
## Output 14.8

## Input Recorded Ki of Cc1nnc2n1-c1ccc(-c3ccc(CN4CCN(C)CC4)cc3)cc1C(Nc1ccc(Cl)cc1)CC2 (stereo not given) , please.
## Output 18

## Input Please report the recorded Ki for CCn1cc(-c2ccc3c(c2)C(Nc2ccc(Cl)cc2)CCc2nnc(C)n2-3)cn1 (stereo not given) .
## Output 14.8

## Input Give the measured Ki of Cc1nnc2n1-c1ccc(Br)cc1C(Nc1ccc(Cl)cc1)CC2 (racemic) .
## Output 736

## Input Ki lookup needed for Cc1nnc2n1-c1ccc(-c3cnoc3)cc1C(Nc1ccc(Cl)cc1)CC2 (stereo not given) , thanks.
## Output 83.7

---
## Input Consider the compound Cc1nnc2n1-c1ccc(-c3ccc(N)nc3)cc1C(Nc1cccc(CO)c1)CC2 (stereo not given) and give its measured Ki.
## Output 128

## Input If you can, please state the reported Ki value of Cc1nnc2n1-c1ccc(-c3ccc(N)nc3)cc1C(Nc1ccc(Cl)cc1)CC2 (stereo not given) .
## Output 68.4

## Input Field request: Ki | item: Cc1nnc2n1-c1ccc(N)cc1C(Nc1ccc(Cl)cc1)CC2 (stereo not given)
## Output 1230

## Input Could you share which Ki value was measured for Cc1nnc2n1-c1ccc(-c3cncs3)cc1C(Nc1ccc(Cl)cc1)CC2 (stereo not given) ?
## Output 34.8

## Input // lookup Ki for Cc1nnc2n1-c1ccc(-c3cnn(C)c3)cc1[C@@H](Nc1ccc(Cl)cc1)CC2
## Output 945

====

test: Volume of distribution at steady state in ICR mouse at 5 mg/kg, iv measured upto 24 hrs by LC-MS/MS analysis; format: ADME, organism-based; settings: in vivo, read-out: Vdss
recorded-endpoint: Vd
Enter the number, and then the unit.

## Input Which measured Vd value corresponds to Cc1nnc2n1-c1ccc(-c3cnn(C)c3)cc1[C@H](Nc1ccc(Cl)cc1)CC2 ?
## Output 0.94 L/kg

====

target: Bromodomain-containing protein 3 (Homo sapiens); assay: Binding affinity to human partial length BRD3 BD2 (G306 to P416 residues) expressed in bacterial expression system by bromoscan assay
Sequence (Q15059 whole entry, the tested form may be a part): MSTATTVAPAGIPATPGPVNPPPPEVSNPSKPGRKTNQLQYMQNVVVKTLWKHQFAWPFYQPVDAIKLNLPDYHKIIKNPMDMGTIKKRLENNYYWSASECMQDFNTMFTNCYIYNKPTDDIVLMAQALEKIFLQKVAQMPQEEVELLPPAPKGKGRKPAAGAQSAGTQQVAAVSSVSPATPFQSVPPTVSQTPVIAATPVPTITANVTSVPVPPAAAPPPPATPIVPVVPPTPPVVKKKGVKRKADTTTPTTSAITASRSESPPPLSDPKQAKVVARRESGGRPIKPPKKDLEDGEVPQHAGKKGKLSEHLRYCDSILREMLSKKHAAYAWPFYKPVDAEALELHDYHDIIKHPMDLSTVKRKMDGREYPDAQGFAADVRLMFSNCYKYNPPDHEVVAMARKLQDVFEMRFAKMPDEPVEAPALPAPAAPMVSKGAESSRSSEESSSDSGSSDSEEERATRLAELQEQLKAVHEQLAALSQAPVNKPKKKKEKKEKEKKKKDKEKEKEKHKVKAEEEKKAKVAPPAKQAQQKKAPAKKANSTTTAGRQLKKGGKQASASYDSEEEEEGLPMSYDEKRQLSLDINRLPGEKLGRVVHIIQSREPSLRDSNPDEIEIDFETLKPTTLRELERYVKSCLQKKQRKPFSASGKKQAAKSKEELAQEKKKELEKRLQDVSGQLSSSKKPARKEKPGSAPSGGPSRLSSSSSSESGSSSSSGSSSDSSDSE
recorded-endpoint: pKd
By convention, pKd is the negative base-10 log of a molar concentration.

## Input Entry under review: Cc1nnc2n1-c1ccc(-c3cnn(C)c3)cc1[C@H](Nc1ccc(Cl)cc1)CC2 . Reported pKd?
## Output 8.59

====

biological target: Bromodomain-containing protein 3 (Homo sapiens); assay: Binding affinity to human recombinant BRD3 BD1 (24 to 144 residues) by fluorescence polarization assay
recorded-endpoint: Ki (nM)
The figure you give is taken to be in nM; do not add the unit.

The examples below pair each entry with its known result.
## Input Which Ki reading was recorded for the compound CCn1cc(-c2ccc3c(c2)C(Nc2ccc(Cl)cc2)CCc2nnc(C)n2-3)cn1 (centres undefined) ?
## Output 99.7

## Input For Cc1nnc2n1-c1ccc(-c3cn[nH]c3)cc1C(Nc1ccc(Cl)cc1)CC2 (centres undefined) , what is its reported Ki?
## Output 114

Further cases:
## Input Reported Ki for Cc1nnc2n1-c1ccc(-c3cnn(C)c3)cc1[C@H](Nc1ccc(Cl)cc1)CC2 : what is it?
## Output 77.9

## Input For the compound Cc1nnc2n1-c1ccc(-c3cnn(C)c3)cc1C(Nc1ccc(Cl)cc1)CC2 (centres undefined) , what Ki is on record?
## Output 188
